measurement.description: Half life in CD-1 mouse liver microsomes by UPLC-MS analysis
Type: ADME
Documented half-life across a set of compounds
The response must be a number in h with no trailing unit.

Check out these entries, answers already filled in.
[
  {
    "molecule.smiles": "COc1cc2ncnc(-n3nc(-c4ccccn4)nc3N)c2cc1OCCCNC(=O)OC(C)C",
    "half-life (h)": 0.2
  },
  {
    "molecule.smiles": "COc1cc2ncnc(-n3nc(-c4ccccn4)nc3N)c2cc1OC",
    "half-life (h)": 0.9
  },
  {
    "molecule.smiles": "COCCOc1cc2ncnc(-n3nc(-c4ccccn4)nc3N)c2cc1OCCOC",
    "half-life (h)": 2.4
  }
]

Please look at the following compound next.
Tell us which half-life value is on record for COCCOc1cc2c(-n3nc(-c4ccccn4)nc3N)ncnc2cc1OC
2

----------
// reported CLint scaled per item
measurement.description: Intrinsic clearance in dog liver microsomes after 0.5 to 4 hrs by UPLC-MS analysis
Assay type: ADME, Canis lupus familiaris
condition.summary: read-out: CLH

Solved entries:
[
  {
    "molecule.smiles": "COCCOc1cc2ncnc(-n3nc(-c4ccccn4)nc3N)c2cc1OCCOC",
    "measure.name": "CLint scaled",
    "result": "< 8.3 mL/min/kg"
  },
  {
    "molecule.smiles": "COCCOc1cc2c(-n3nc(-c4ccccn4)nc3N)ncnc2cc1OC",
    "measure.name": "CLint scaled",
    "result": "< 8.3 mL/min/kg"
  },
  {
    "molecule.smiles": "COc1cc2ncnc(-n3nc(-c4ccccn4)nc3N)c2cc1OC",
    "measure.name": "CLint scaled",
    "result": "52.5 mL/min/kg"
  }
]

Then this molecule:
Please look at this molecule and report its CLint scaled: COc1cc2ncnc(-n3nc(-c4ccccn4)nc3N)c2cc1OCCCNC(=O)OC(C)C
< 7.9 mL/min/kg

----------
measurement.description: Stability of the compound in phosphate buffered saline assessed as compound stability time at pH 5 by UPLC-MS analysis
Format: physicochemical
condition.summary: buffer
The entries below come with measured Stability values attached.

Give a short answer stating reported Stability for COCCOc1cc2ncnc(-n3nc(-c4ccccn4)nc3N)c2cc1OCCOC .
> 48 h

Using known records, supply Stability for COCCOc1cc2c(-n3nc(-c4ccccn4)nc3N)ncnc2cc1OC
> 24 h

For the molecule COc1cc2ncnc(-n3nc(-c4ccccn4)nc3N)c2cc1OCCCNC(=O)OC(C)C , give its reported Stability.
> 24 h

Query Stability for COc1cc2ncnc(-n3nc(-c4ccccn4)nc3N)c2cc1OC
> 48 h

----------
// CLint scaled lookup, one value per entry
measurement.description: Intrinsic clearance in human liver microsomes after 0.5 to 4 hrs by UPLC-MS analysis
Assay type: ADME
condition.summary: read-out: CLH
Reply numerically in L/h/kg, unit not repeated.

Record excerpt, results attached:
[
  {
    "molecule.smiles": "COc1cc2ncnc(-n3nc(-c4ccccn4)nc3N)c2cc1OC",
    "measure.name": "CLint scaled",
    "result.number": 0.366
  },
  {
    "molecule.smiles": "COc1cc2ncnc(-n3nc(-c4ccccn4)nc3N)c2cc1OCCCNC(=O)OC(C)C",
    "measure.name": "CLint scaled",
    "result.number": 1.13
  }
]

Give CLint scaled for the following compound: COCCOc1cc2ncnc(-n3nc(-c4ccccn4)nc3N)c2cc1OCCOC
0.774

# credit: ChEMBL document CHEMBL3763144
